All figures here come from paper PMC7377376.

Target: human cytochrome P450 2E1 (Homo sapiens, UniProt P05181)
Construct: purchased BD Biosciences
Sequence (P05181 whole entry): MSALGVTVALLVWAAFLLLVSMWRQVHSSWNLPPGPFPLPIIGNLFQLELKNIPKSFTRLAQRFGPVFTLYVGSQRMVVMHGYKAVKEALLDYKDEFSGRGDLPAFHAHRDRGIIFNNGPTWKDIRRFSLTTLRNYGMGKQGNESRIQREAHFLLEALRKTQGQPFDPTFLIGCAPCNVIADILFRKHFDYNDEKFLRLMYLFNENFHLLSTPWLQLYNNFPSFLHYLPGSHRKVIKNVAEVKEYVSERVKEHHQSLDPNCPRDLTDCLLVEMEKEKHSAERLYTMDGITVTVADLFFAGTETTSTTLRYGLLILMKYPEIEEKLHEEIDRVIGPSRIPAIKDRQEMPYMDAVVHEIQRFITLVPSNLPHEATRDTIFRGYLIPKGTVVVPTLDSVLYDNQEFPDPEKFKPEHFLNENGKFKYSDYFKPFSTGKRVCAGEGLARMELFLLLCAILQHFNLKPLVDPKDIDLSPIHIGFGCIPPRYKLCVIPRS
Experiment: Steady-state p-nitrophenol oxidation, CYP2E1 inhibition in SUPERSOMES
Assay type: biochemical
Conditions: human CYP2E1 SUPERSOMES
Observable: inhibitory effect on CYP2E1 (in words)

Item: OCCCCCCCCCn1ccnc1 [I-nonanol, 9-imidazolyl-1-nonanol] | inhibitory effect on CYP2E1 (in words): almost identical

Item: OCCCCCCCCCCn1ccnc1 [I-decanol, 10-imidazolyl-1-decanol] | inhibitory effect on CYP2E1 (in words): almost identical

* * *

Molecular target: rat liver microsomes
Test: Difference spectra titration of rat liver microsomes
Settings: one specific binding site
Observable: Kd

Item: OCCCCCCCCCCCCn1ccnc1 | Kd: 0.578 µM
